# Tested on: HCC 2998
# measurement-description: NCI tumour cell line growth inhibition, 48 h
The source made the active and inactive calls. Cut-off read from the data, not from the text of the source: active = GI50 up to about 1.1 µM and inactive = higher.
experimental-readout: GI50

                                    compound  experimental_readout             observed
 0  CC(=O)OCC12C(=O)C[C@@H](C)C3(CC(c4ccoc4)OC3=O)C1CCC(OC(C)=O)C21CO1 (stereo partly specified)                  GI50  > 100 µM (inactive)
 1  O=C(Cc1csc(-c2nc(CC(=O)NNc3ccccc3)cs2)n1)NNc1ccccc1                  GI50     43 µM (inactive)
 2                      c1cnc2nc3n(c2c1)CSC3                  GI50  > 100 µM (inactive)
 3  CC1CCC2(OCCO2)[C@]2(C)CC(O)C(=O)C=C12 (stereo partly specified)                  GI50  > 100 µM (inactive)
 4  O=C1CC(c2c[nH]c3ccccc23)C(=O)N1 (stereo unspecified)                  GI50  > 100 µM (inactive)
 5  CCN(CC)CC1CCCCCCCCCCC1=O (stereo unspecified)                  GI50  > 100 µM (inactive)
 6  CN1CN(C2OC(CO)C(O)C2O)c2nc(N)[nH]c(=O)c21 (stereo unspecified)                  GI50  > 100 µM (inactive)
 7  CCCCCCCCCC(=O)NC(Cc1ccc(O)cc1)C(=O)NCCCNCCCCNCCCNC(=O)[C@@H](N)CCCN=C(N)N (stereo partly specified)                  GI50   27.7 µM (inactive)
 8  C[C@H](NC(=O)C(Cc1ccccc1)(Cc1ccc(O)cn1)NC(=O)c1ccccc1)c1ccccc1 (stereo partly specified)                  GI50   16.5 µM (inactive)
 9            C=CCOc1ccc(N)c([N+](=O)[O-])c1                  GI50  > 100 µM (inactive)
10  O=C(O)CCC(NC(=O)c1ccc(Nc2nc3ccc(C(F)(F)F)cc3nc2C(=O)O)cc1)C(=O)O (stereo unspecified)                  GI50  > 100 µM (inactive)
